Reported values of IC50 for individual entries
biological target: JAK3 (Homo sapiens (Human)); experiment: Purified kinase assay (Z'-LYTE), JAK3; type: biochemical; conditions: Table 1; read-out: JAK3 IC50
Sequence (P52333 822-1111): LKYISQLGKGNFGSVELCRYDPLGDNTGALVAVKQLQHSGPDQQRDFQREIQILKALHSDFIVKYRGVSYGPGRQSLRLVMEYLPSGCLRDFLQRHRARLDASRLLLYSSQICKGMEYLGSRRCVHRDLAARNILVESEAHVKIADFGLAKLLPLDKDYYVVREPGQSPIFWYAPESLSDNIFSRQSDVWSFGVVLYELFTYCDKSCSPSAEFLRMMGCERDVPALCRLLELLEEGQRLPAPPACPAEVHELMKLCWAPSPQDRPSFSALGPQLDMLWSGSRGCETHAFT

Below, each entry is followed by its recorded IC50 result.
[
  {
    "molecule": "CC(=O)N1CCN(c2ccc(Nc3cc(NCc4cccc(-c5ccccn5)c4)c(C(N)=O)nn3)cc2)CC1 [Compound 71]",
    "test system": "JAK3 (Homo sapiens (Human))",
    "IC50": "100 to 1000 nM"
  },
  {
    "molecule": "CC(=O)N1CCC(Cn2cc(Nc3cc(NCc4cccc5ccsc45)c(C(N)=O)nn3)cn2)CC1 [Compound 125]",
    "test system": "JAK3 (Homo sapiens (Human))",
    "IC50": "1 to 10 nM"
  },
  {
    "molecule": "CC(=O)N1CCN(C(=O)c2ccc(Nc3cc(NCc4cccc(F)c4)c(C(N)=O)nn3)cc2)CC1 [Compound 81]",
    "test system": "JAK3 (Homo sapiens (Human))",
    "IC50": "10 to 100 nM"
  },
  {
    "molecule": "CS(=O)(=O)c1ccc(Nc2cc(NCc3cccc(F)c3)c(C(N)=O)nn2)cc1 [Compound 84]",
    "test system": "JAK3 (Homo sapiens (Human))",
    "IC50": "100 to 1000 nM"
  },
  {
    "molecule": "COc1cccc(CNc2cc(Nc3ccc(N4CCN(C(C)=O)CC4)cc3)nnc2C(N)=O)c1 [Compound 58]",
    "test system": "JAK3 (Homo sapiens (Human))",
    "IC50": "10 to 100 nM"
  }
]

As a next step, examine the molecule that follows.
Lookup: Which IC50 reading was recorded for the molecule Cn1ccc(Nc2cc(NCc3cccc(F)c3)c(C(N)=O)nn2)n1 [Compound 67] ?
Found: 10 to 100 nM

====

biological target: JAK1 (Homo sapiens (Human), UniProt P23458); assay: Purified kinase assay (Z'-LYTE), JAK1; type: biochemical; details: Table 1; read-out: JAK1 IC50
Sequence (P23458 875-1153): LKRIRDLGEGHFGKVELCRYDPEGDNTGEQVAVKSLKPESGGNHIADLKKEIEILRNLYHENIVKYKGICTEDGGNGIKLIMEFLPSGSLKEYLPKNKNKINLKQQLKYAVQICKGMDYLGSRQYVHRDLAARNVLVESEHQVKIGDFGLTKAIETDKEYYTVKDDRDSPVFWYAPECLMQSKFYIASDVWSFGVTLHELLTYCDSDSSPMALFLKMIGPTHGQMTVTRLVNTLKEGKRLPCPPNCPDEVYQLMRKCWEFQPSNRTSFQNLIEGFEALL
Overview of reported IC50 across a group of molecules:

Some entries whose results are on file:
[
  {
    "molecule": "CCn1cc(Nc2cc(NCc3cccc(F)c3)c(C(N)=O)nn2)cn1 [Compound 123]",
    "IC50": "> 1000 nM"
  },
  {
    "molecule": "NC(=O)c1nnc(Nc2cnn(C3CCCC3)c2)cc1NCc1cccc2ccsc12 [Compound 115]",
    "IC50": "> 1000 nM"
  },
  {
    "molecule": "CC(=O)N1CCN(c2ccc(Nc3cc(NC4CCCC4)c(C(N)=O)nn3)cc2)CC1 [Compound 10]",
    "IC50": "100 to 1000 nM"
  }
]

Lookup: Report IC50 for CN(C)C(=O)Cn1cc(Nc2cc(NCc3cccc4ccsc34)c(C(N)=O)nn2)cn1 [Compound 131] please.
Found: 100 to 1000 nM

Lookup: Now the molecule NC(=O)c1nnc(Nc2ccc(C(=O)N3CCCC3)c(Cl)c2)cc1NCc1cccc(F)c1 [Compound 55]
Found: > 1000 nM

Lookup: What do we get for CS(=O)(=O)CCc1ccc(Nc2cc(NCc3cccc(F)c3)c(C(N)=O)nn2)cc1 [Compound 108] ?
Found: > 1000 nM

Lookup: Same read-out for NC(=O)c1nnc(Nc2cnn(CC3CC3)c2)cc1NCc1cccc(F)c1 [Compound 119] ?
Found: > 1000 nM

====

tested on: JAK3/JAK1 (IL2-STAT5 in PBMC); assay: Intracellular STAT5 phosphorylation following IL2 stimulation of PBMC (JAK3/JAK1 cellular assay); format: cell-based; conditions: Homo sapiens, at 0.2 μM, read-out: IL2-STAT5 percent inhibition of STAT phosphorylation
endpoint label: inhibition at 0.2 µM (%)
All answers are understood in %, so give the number only.

Below: 3 compounds and their reported inhibition at 0.2 µM.
[
  {
    "chemical structure": "CC(=O)N1CCN(c2ccc(Nc3cc(NCc4cccc5ccsc45)c(C(N)=O)nn3)cc2)CC1",
    "inhibition at 0.2 µM (%)": 13
  },
  {
    "chemical structure": "CC(=O)N1CCN(c2ccc(Nc3cc(NCc4cc(F)cc(F)c4)c(C(N)=O)nn3)cc2)CC1",
    "inhibition at 0.2 µM (%)": 32
  },
  {
    "chemical structure": "CC(=O)N1CCN(c2ccc(Nc3cc(NCc4cccc5[nH]ccc45)c(C(N)=O)nn3)cc2)CC1",
    "inhibition at 0.2 µM (%)": 69
  }
]

From here, focus on the item given below.
Lookup: Fill in: inhibition at 0.2 µM of CCC(=O)N1CCN(c2ccc(Nc3cc(NCc4c(F)cccc4F)c(C(N)=O)nn3)cc2)CC1 is ___
Found: 31

====

molecular target: JAK1 (Homo sapiens (Human)); test: Purified kinase assay (Z'-LYTE), JAK1; assay type: biochemical; conditions: Table 1; read-out: JAK1 IC50
pIC50: −log10 of the molar value.
Listed here are compounds together with their documented pIC50.

[
  {
    "chemical structure": "CC(=O)N1CCC(Cn2cc(Nc3cc(NCc4cccc(F)c4)c(C(N)=O)nn3)cn2)CC1",
    "test system": "JAK1 (Homo sapiens (Human))",
    "endpoint label": "pIC50",
    "recorded result": "< 6.00"
  },
  {
    "chemical structure": "CC(=O)N1CCN(c2ccc(Nc3cc(NCC(C)C)c(C(N)=O)nn3)cc2)CC1",
    "test system": "JAK1 (Homo sapiens (Human))",
    "endpoint label": "pIC50",
    "recorded result": "< 6.00"
  },
  {
    "chemical structure": "NC(=O)c1nnc(Nc2cnn(CC3CC3)c2)cc1NCc1cccc2ccsc12",
    "test system": "JAK1 (Homo sapiens (Human))",
    "endpoint label": "pIC50",
    "recorded result": "6.00 to 7.00"
  },
  {
    "chemical structure": "CC(=O)N1CCN(c2ccc(Nc3cc(NCc4cccc5[nH]ccc45)c(C(N)=O)nn3)cc2)CC1",
    "test system": "JAK1 (Homo sapiens (Human))",
    "endpoint label": "pIC50",
    "recorded result": "7.00 to 8.00"
  },
  {
    "chemical structure": "Cn1ccc(Nc2cc(NCc3cccc(F)c3)c(C(N)=O)nn2)n1",
    "test system": "JAK1 (Homo sapiens (Human))",
    "endpoint label": "pIC50",
    "recorded result": "< 6.00"
  },
  {
    "chemical structure": "CC(C)Nc1cc(Nc2ccc(N3CCNCC3)cc2)nnc1C(N)=O",
    "test system": "JAK1 (Homo sapiens (Human))",
    "endpoint label": "pIC50",
    "recorded result": "< 6.00"
  }
]

Lookup: Fill blank: measured pIC50 of the compound Cc1cc(Nc2cc(NCc3cccc(F)c3)c(C(N)=O)nn2)ccc1N1CCOCC1 is ____.
Found: < 6.00

Lookup: Then what about the compound NC(=O)c1nnc(Nc2ccc(C(=O)N3CCCC3)cn2)cc1NCc1cccc(F)c1 ?
Found: 6.00 to 7.00

====

molecular target: JAK1 (Homo sapiens (Human)); assay: Purified kinase assay (Z'-LYTE), JAK1; assay type: biochemical; details: Table 1; read-out: JAK1 IC50
endpoint label: IC50

Worked examples, 3 compounds total:
[
  {
    "compound": "NC(=O)c1nnc(Nc2ccc(N3CCOCC3)cc2)cc1NCc1cccc(F)c1 [Compound 35]",
    "IC50": "> 1 µM"
  },
  {
    "compound": "NC(=O)c1nnc(Nc2ccc(C(=O)N3CCOCC3)cc2)cc1NCc1cccc(F)c1 [Compound 80]",
    "IC50": "> 1 µM"
  },
  {
    "compound": "Cc1cc(Nc2cc(NCc3cccc(F)c3)c(C(N)=O)nn2)ccc1C(=O)N(C)C [Compound 60]",
    "IC50": "> 1 µM"
  }
]

Next up:
Lookup: # query: IC50 of entry CC(=O)N1CCN(c2ccc(Nc3cc(NCc4cccc5ccsc45)c(C(N)=O)nn3)cc2)CC1 [Compound 98]
Found: 0.1 to 1 µM

====

IC50 reference
target: UniProt:P52333; assay: Purified kinase assay (Z'-LYTE), JAK3; format: biochemical; conditions: Table 1; read-out: JAK3 IC50

Some entries whose results are on file:
[
  {
    "compound": "CS(=O)(=O)Cc1ccc(Nc2cc(NCc3cccc(F)c3)c(C(N)=O)nn2)cc1 [Compound 85]",
    "recorded result": "10 to 100 nM"
  },
  {
    "compound": "NC(=O)c1nnc(Nc2cccc(OCCN3CCCC3)c2)cc1NCc1cccc(F)c1 [Compound 56]",
    "recorded result": "10 to 100 nM"
  },
  {
    "compound": "CCC(=O)N1CCN(c2ccc(Nc3cc(NCc4cccc(F)c4F)c(C(N)=O)nn3)cc2)CC1 [Compound 34]",
    "recorded result": "1 to 10 nM"
  },
  {
    "compound": "NC(=O)c1nnc(Nc2cnn(C3CCCC3)c2)cc1NCc1cccc(F)c1F [Compound 116]",
    "recorded result": "10 to 100 nM"
  }
]

Lookup: Query: IC50; subject: CS(=O)(=O)Cc1ccc(Nc2cc(NC3CCN(c4ccc(C#N)cn4)CC3)c(C(N)=O)nn2)cc1 [Compound 93]
Found: 10 to 100 nM

Lookup: Continue with CC(=O)N(C)c1ccc(Nc2cc(NCc3cccc(F)c3)c(C(N)=O)nn2)cc1 [Compound 101]
Found: 100 to 1000 nM

Lookup: Lookup CC(=O)N1CCN(c2ccc(Nc3cc(NCc4ccc(Cl)s4)c(C(N)=O)nn3)cc2)CC1 [Compound 76]
Found: 10 to 100 nM

Lookup: Now consider CCC(=O)N1CCN(c2ccc(Nc3cc(NCc4cccc(F)c4)c(C(N)=O)nn3)cc2)CC1 [Compound 30] .
Found: 10 to 100 nM
